Items are presented alongside their recorded pIC50.
target: Cyclin-dependent kinase 4/cyclin D1 (Homo sapiens, UniProt P11802); assay: Inhibition of CDK4/Cyclin D1 complex formation
Sequence (P11802 whole entry): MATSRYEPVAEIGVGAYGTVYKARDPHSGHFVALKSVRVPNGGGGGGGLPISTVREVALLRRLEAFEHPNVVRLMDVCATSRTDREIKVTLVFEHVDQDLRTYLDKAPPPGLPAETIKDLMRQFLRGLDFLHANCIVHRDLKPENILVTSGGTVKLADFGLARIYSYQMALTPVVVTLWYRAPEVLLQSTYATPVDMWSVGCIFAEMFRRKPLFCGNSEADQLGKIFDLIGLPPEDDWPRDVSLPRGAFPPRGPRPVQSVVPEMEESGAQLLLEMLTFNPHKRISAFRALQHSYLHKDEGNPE
Sequence (P24385 whole entry, further chain): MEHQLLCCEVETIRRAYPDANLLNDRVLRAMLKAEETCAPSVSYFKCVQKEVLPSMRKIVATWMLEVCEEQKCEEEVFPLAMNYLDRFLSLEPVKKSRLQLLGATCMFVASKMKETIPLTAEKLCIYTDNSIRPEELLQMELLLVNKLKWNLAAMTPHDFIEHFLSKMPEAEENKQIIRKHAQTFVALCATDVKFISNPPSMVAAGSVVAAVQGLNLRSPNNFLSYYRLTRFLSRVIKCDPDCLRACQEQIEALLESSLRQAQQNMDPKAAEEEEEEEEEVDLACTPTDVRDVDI
Counter-ions that a name gives are not always drawn.
Interpret pIC50 as the negative base-10 log of the concentration measured in mol/L.

CC(CC[C@@H](C)[C@H]1CC[C@H]2[C@@H]3C[C@H](OS(=O)(=O)O)[C@H]4C[C@H](OS(=O)(=O)O)[C@@H](OS(=O)(=O)O)C[C@]4(C)[C@H]3CC[C@]12C)C(C)(C)C (some centres not stated) [HALISTANOL SULFATE] ... 4.90

Enquiry: For the molecule shown here, CC1=CC[C@H]2C(C)(C)CCC[C@]2(C)[C@H]1Cc1cc(O)c(O)c(C=O)c1OS(=O)(=O)O , give the reported pIC50.
Return: 4.71
